Overview of recorded Athena reading (relative luminescence units) for various binders
Molecular target: T1, Jo-1 (UniProt P12081)
T1 sequence (looked up): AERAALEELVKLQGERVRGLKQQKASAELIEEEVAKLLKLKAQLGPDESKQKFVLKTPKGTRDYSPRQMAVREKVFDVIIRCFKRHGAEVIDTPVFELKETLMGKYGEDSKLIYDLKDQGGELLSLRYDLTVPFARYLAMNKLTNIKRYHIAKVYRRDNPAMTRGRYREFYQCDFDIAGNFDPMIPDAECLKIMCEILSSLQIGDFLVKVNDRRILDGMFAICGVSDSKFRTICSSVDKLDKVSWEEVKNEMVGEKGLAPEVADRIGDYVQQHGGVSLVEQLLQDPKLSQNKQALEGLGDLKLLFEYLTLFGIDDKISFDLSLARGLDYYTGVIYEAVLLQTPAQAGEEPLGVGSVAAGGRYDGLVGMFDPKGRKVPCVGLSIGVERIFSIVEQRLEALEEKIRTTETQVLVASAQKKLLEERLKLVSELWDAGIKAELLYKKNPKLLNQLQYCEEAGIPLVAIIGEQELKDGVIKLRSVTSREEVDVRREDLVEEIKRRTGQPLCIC
Assay: AtheNA, Ab 6.25 ug/ml
Quick one: just the number, no unit, thanks!

| Binder | Data value |
| --- | --- |
| CH235_4A (antibody, from a related filing, V domains shown) VH: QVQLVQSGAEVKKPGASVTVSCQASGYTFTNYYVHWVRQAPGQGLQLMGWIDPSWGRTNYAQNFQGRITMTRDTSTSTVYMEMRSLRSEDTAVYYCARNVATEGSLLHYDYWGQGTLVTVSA VL: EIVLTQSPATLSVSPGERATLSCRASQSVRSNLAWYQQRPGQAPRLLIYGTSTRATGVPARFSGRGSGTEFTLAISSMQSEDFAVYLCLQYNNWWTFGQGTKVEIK | 2 |

Ask: Form field: reported Athena reading (relative luminescence units) of CH240_4A/293i (antibody, from a related filing, V domains shown) VH: QVQLVQSGTEVRKPGASVTISCKASGYTFNNFYVHWVRQAPGQGLECMGWIDPSVGRISYGQKFQGRVTMTRDRSTSTVYMGLSSLRSEDTAMYYCVRDVGTEGSLLHFDHWGQGTLVIVSA VL: EIVLTQSPATLSVSPGERATLSCRATQSVRSNLAWYQQKRGQAPRLLIYSASTRATGIPARFSGSGSGTEFTLTISSVQSEDFAVYYCLQYNNWWTFGQGTKVEIK
Result: 5

Ask: Form field: reported Athena reading (relative luminescence units) of CH239_4A/293i (antibody, from a related filing, V domains shown) VH: QVQLVQSGAEVRKPGASVTVSCKASGYTFNNFYVHWVRQAPGQGLECMGWIDPSVGRINYAQKFQGRVTMTRDRSTSTVYMGLSSLRSEDTAIYYCVRDVGTEGSLLHFDHWGQGTLVIVSA VL: EIVLTQSPATLSVSPGERATLSCRATQSVRSNVAWYQQKPGQAPRLLIYSASTRATGIPARFSGSGSGTEFTLTIASMQSEDFAVYYCLQYDDWWTFGQGTKVEIK
Result: 8

Ask: Form field: reported Athena reading (relative luminescence units) of CH241 (antibody, from a related filing, V domains shown) VH: QVQLVQSGAAVKKPGASVRVSCKASGYTFTSSHIHWVRQAPGQGPEWMGMIDPSVGRPTTAGKFQGRVTMTRDRYTSTAYMDLSSLRSEDTAVYYCARSVETTGSLLYFDYWGQGTLITVSS VL: EIVLTQSPATLSVSPGERATLSCRASQSVRSNIAWYQQKPGQAPRLLIHGASTRATGIPGRFSGSGSGPEFTLAISSVQSEDFAVYYCQQYNDWWTFGQGTKVEIK
Result: 2

Ask: Form field: reported Athena reading (relative luminescence units) of CH236_4A/293i (antibody, from a related filing, V domains shown) VH: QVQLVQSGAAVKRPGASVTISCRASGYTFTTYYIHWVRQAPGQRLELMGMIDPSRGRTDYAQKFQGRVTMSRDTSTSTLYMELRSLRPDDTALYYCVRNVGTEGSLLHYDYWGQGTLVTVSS VL: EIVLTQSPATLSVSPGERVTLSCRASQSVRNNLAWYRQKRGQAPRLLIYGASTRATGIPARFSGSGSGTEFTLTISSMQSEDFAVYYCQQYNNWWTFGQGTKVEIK
Result: 7
